# credit: ChEMBL document CHEMBL1201862

Test system: SF-268
Assay: NCI tumour cell line growth inhibition, 48 h
Calls of active or inactive are those of the source. No stated cut-off is given here; in the data, active = GI50 up to about 1.1 µM and inactive = higher.
MEASUREMENT KIND: GI50

Ask: Return reported GI50. Input compound: COC(=O)[C@@]1(Cc2ccc(O)cc2)C[C@@H]2Cc3ccccc3N2N1
Result: > 100 µM (inactive)

Ask: Return reported GI50. Input compound: CC(C)(C)c1ccc(O)c(C(O)c2ccncc2)c1 (centres undefined)
Result: > 100 µM (inactive)

Ask: Return reported GI50. Input compound: OC(c1ccccc1Br)(c1ccccc1Br)C(F)(F)F
Result: 20.9 µM (inactive)

Ask: Return reported GI50. Input compound: CCOC(C)OCC#CCCBr (centres undefined)
Result: > 100 µM (inactive)

---

System: IGROV-1
Assay: NCI tumour cell line growth inhibition, 48 h
The source made the active and inactive calls. Rule as the data show it: active = GI50 up to about 1.1 µM and inactive = higher. Starred links: 1 amine or outer side, 2 acyl side, 3 side chain; linkers in the order of their positions; H or OH if unused. Positions of bridges follow the written chain, without caps; N, C: chain ends. Non-standard residues stand in square brackets, D forms with d. Residues, ends and D or L forms follow the SMILES beside them. Chains are numbered I, II in the order given. Actinocin(9to1) = Cc1c2oc3c(C)ccc(C(=O)[*:1])c3nc-2c(C(=O)[*:2])c(N)c1=O; NMeV = CN[CH](C(=O)O)C(C)C; Sar = CNCC(=O)O
Pick one: true (1) = active, false (0) = inactive

Ask: For CC(C)=CCC/C(C)=C/Cc1c2c(c3oc(-c4ccc(O)c(O)c4)c(O)c(=O)c3c1O)C=CC(C)(C)O2 , what call appears in the results of this test?
Result: false (0)

Ask: For CN1COCc2cc3cc4c(cc3nc21)OCCO4 , what call appears in the results of this test?
Result: false (0)

Ask: For O=[N+]([O-])c1cc(F)ccc1S(=O)(=O)c1ccccc1 , what call appears in the results of this test?
Result: false (0)

Ask: For O=C(O)COc1ccc(C(=O)/C(SS/C(C(=O)c2ccc(OCC(=O)O)c(Cl)c2Cl)=C2\C=C(c3ccccc3Cl)SS2)=C2/C=C(c3ccccc3Cl)SS2)c(Cl)c1Cl , what call appears in the results of this test?
Result: false (0)

Ask: For COC(=O)[C@@H]1C[C@]2(Br)c3ccccc3N(S(=O)(=O)c3ccccc3)[C@@H]2N1C(=O)OC , what call appears in the results of this test?
Result: false (0)

Ask: For Nn1c(=S)[nH]nc(/C=C/c2c(O)ccc3ccccc23)c1=O , what call appears in the results of this test?
Result: false (0)

Ask: For Cc1cc(NN)nc2[nH]nc(N)c12 , what call appears in the results of this test?
Result: false (0)

Ask: For Nc1ccccc1NC(=O)c1ccc(CNC(=O)OCc2cccnc2)cc1 , what call appears in the results of this test?
Result: false (0)

Ask: For CCOC(C)OCC#CCCBr (configuration not stated) , what call appears in the results of this test?
Result: false (0)

Ask: For CCSC1=N/C(=C/c2ccccc2O)C(=O)N1 , what call appears in the results of this test?
Result: false (0)

Ask: For Cc1c2oc3c(C)ccc(C(=O)NC4C(=O)NC(Cc5ccc(O)cc5)C(=O)N5CCCC5C(=O)N(C)CC(=O)N(C)C(C(C)C)C(=O)OC4C)c3nc-2c(C(=O)NC2C(=O)NC(Cc3ccc(O)cc3)C(=O)N3CCCC3C(=O)N(C)CC(=O)N(C)C(C(C)C)C(=O)OC2C)c(N)c1=O (configuration not stated) (I: TYP[Sar][NMeV] / II: TYP[Sar][NMeV]; ester I:1-I:C, II:1-II:C; linker I:N-II:N via Actinocin(9to1); configuration not given here) , what call appears in the results of this test?
Result: true (1)

Ask: For O=C1Cc2ccccc2N1/N=C\c1ccc([N+](=O)[O-])cc1 , what call appears in the results of this test?
Result: false (0)
